TARGET_OR_TEST_SYSTEM: human mast cell chymase (Homo sapiens, UniProt P23946)
Construct: made in house; host or cells: insect cells (Th5), recombinant baculovirus
Sequence (P23946 22-247): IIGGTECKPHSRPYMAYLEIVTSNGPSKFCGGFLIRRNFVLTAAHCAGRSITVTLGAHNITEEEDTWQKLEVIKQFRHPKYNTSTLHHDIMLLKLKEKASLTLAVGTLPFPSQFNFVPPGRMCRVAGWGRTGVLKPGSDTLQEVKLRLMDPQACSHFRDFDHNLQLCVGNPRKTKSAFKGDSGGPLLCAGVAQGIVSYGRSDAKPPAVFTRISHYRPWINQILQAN
ASSAY_SUMMARY: Recombinant human mast cell chymase enzymatic activity inhibition
Type: biochemical
EXPERIMENTAL_CONDITIONS: stated in parentheses for Compounds A and B; read-out: human chymase IC50 (reference compounds)
Procedure: Specifically, Heparin Sepharose (Pharmacia) was used for purification from a culture supernatant of insect cells (Th5) infected with recombinant baculovirus containing cDNA coding for human mast cell chymase. The time-related change in absorbance at 405 nm was measured to determine the inhibiting activity.
pIC50: −log10 of the molar value.
Consider the following compounds and their measured pIC50 readings.

COMPOUND: [O-][S+](Cc1ccc(Cl)cc1)c1nnc(OCc2ccc(Cl)cc2)c2nccn12 (centres unmarked) [Compound B, reference compound]
TARGET_OR_TEST_SYSTEM: human mast cell chymase (Homo sapiens, UniProt P23946)
pIC50: 7.52
//
COMPOUND: O=C1CN(c2ccc(Cl)cc2)C(=O)N1S(=O)(=O)c1ccc(Cl)cc1 [Compound A, reference compound]
TARGET_OR_TEST_SYSTEM: human mast cell chymase (Homo sapiens, UniProt P23946)
pIC50: 8.05
